tested on: soybean (Glycine max L., var. Pella 86, SOY); test: Post-emerge greenhouse test, crop damage rating; format: in vivo; settings: 63 g al/ha, 14 days after application
readoutLabel: SOY crop damage rating (0-100)
One number for each entry.

Cn1c(C(F)(F)F)nc(-c2cc(Oc3ncccn3)c(Cl)cc2F)c1Cl : 90
O=c1n(CCCF)nnn1-c1cc(Oc2ncccn2)c(Cl)cc1Cl : 50
Cn1nc(-c2cc(Oc3nc(F)c(F)cc3F)c(Cl)cc2F)c(Cl)c1C(F)(F)F : 30
Cn1nc(-c2cc(Oc3cccc(F)n3)c(Cl)cc2F)c(Cl)c1C(F)(F)F : 40
N#Cc1ccccc1Oc1cc(-n2c(=O)n3n(c2=S)CCCC3)c(F)cc1Cl : 20

// each listed molecule needs a value for SOY crop damage rating (0-100)
1. O=c1n(-c2cc(Oc3ccc([N+](=O)[O-])cc3)c(Cl)cc2F)c(=S)n2n1CCCC2
2. O=c1n(CCCF)nnn1-c1cc(Oc2ncc(Br)cn2)c(Cl)cc1F
3. O=c1n(CCCF)nnn1-c1cc(Oc2ccc(C(F)(F)F)cn2)c(Cl)cc1Cl
4. CCOC(=O)C(C)Oc1ccc(Oc2cc(-n3c(=O)n4n(c3=S)CCCC4)c(F)cc2Cl)cc1 (centres unmarked)

1: 25; 2: 40; 3: 0; 4: 90

----------
tested on: sicklepod (Cassia obtusifolia, CASOB); test: Pre-emerge greenhouse herbicide test, phytotoxicity rating; type: in vivo; conditions: 1000 g ai/ha, 14 days after application, rating scale 0-100
readoutLabel: phytotoxicity rating CASOB
Answers are plain numbers.

Sample records with phytotoxicity rating CASOB:
N#Cc1cccnc1Oc1cc(-n2c(=O)cc3n(c2=O)CCC3)c(F)cc1Cl : 30
Nc1ccc(Oc2cc(-n3c(=O)cc4n(c3=O)CCC4)c(F)cc2Cl)cc1 : 10
O=c1cc2n(c(=O)n1-c1cc(Oc3ncccc3C(F)(F)F)c(Cl)cc1F)CCC2 : 0
N#Cc1ccc(Oc2cc(-n3c(=O)cc4n(c3=O)CCC4)c(F)cc2Cl)nc1 : 30
O=c1cc2n(c(=O)n1-c1cc(Oc3ccc([N+](=O)[O-])cc3)c(Cl)cc1F)CCC2 : 0
CCOC(=O)C(C)Oc1ccc(Oc2cc(-n3c(=O)cc4n(c3=O)CCC4)c(F)cc2Cl)cc1 (centres unmarked) : 40
O=c1cc2n(c(=O)n1-c1cc(Oc3ccccc3[N+](=O)[O-])c(Cl)cc1F)CCC2 : 40

Now look at this one.
Known value: sicklepod (Cassia obtusifolia, CASOB) phytotoxicity rating CASOB of the molecule O=c1cc2n(c(=O)n1-c1cc(Oc3ncccc3[N+](=O)[O-])c(Cl)cc1F)CCC2 equals 0

----------
test system: soybean (Glycine max L., var. Pella 86, SOY); experiment: Post-emerge greenhouse test, crop damage rating; type: in vivo; settings: 500 g al/ha, 14 days after application
SOY crop damage rating (0-100) under 80 gets true (1), anything at or over 80 gets false (0).

O=c1n(-c2cc(Oc3ccc([N+](=O)[O-])cc3)c(Cl)cc2F)c(=S)n2n1CCCC2 [Compound 8-8] : true (1)
O=c1sc(=Nc2cc(Oc3ncccn3)c(Cl)cc2F)n2n1CCCC2 [Compound 7-2] : false (0)
Cn1nc(-c2cc(Oc3ncccc3[N+](=O)[O-])c(Cl)cc2F)c(Cl)c1C(F)(F)F [Compound 1-1] : false (0)
N#Cc1cccnc1Oc1cc(-n2nnn(CCCF)c2=O)c(Cl)cc1Cl [Compound 6-5] : true (1)

# next molecule below
Input O=c1n(-c2cc(Oc3ccccc3[N+](=O)[O-])c(Cl)cc2F)c(=S)n2n1CCCC2 [Compound 8-6] ; condition: SOY crop damage rating (0-100) strictly below 80. Does it hold?
false (0)

----------
system: field corn (Zea mays L., var. Dekalb 535, CORN); experiment: Pre-emerge greenhouse test, crop damage rating; format: in vivo; conditions: 500 g ai/ha, 14 days after application, rating scale 0-100
Provide the recorded crop damage rating CORN for the entries that follow.

In the examples that follow, each entry is paired with its recorded crop damage rating CORN.
N#Cc1cccnc1Oc1cc(-n2nnn(CCCF)c2=O)c(Cl)cc1Cl : 20
O=c1n(-c2cc(Oc3ccccc3[N+](=O)[O-])c(Cl)cc2F)c(=S)n2n1CCCC2 : 0
Nc1ccc(Oc2cc(-n3c(=O)n4n(c3=S)CCCC4)c(F)cc2Cl)c(C(F)(F)F)c1 : 0
O=c1n(CCCF)nnn1-c1cc(Oc2ncccc2[N+](=O)[O-])c(Cl)cc1F : 0
Cn1nc(-c2cc(Oc3ncccc3[N+](=O)[O-])c(Cl)cc2F)c(Cl)c1C(F)(F)F : 20

Provide crop damage rating CORN for all items below, preserving their order.
1. O=c1cc2n(c(=O)n1-c1cc(Oc3ncccn3)c(Cl)cc1F)CCC2
2. N#Cc1ccccc1Oc1cc(-n2c(=O)n3n(c2=S)CCCC3)c(F)cc1Cl
3. O=c1n(CCCF)nnn1-c1cc(Oc2ccc(C(F)(F)F)cn2)c(Cl)cc1F
4. Cn1nc(-c2cc(Oc3nc(F)c(F)cc3F)c(Cl)cc2F)c(Cl)c1C(F)(F)F
5. N#Cc1cc([N+](=O)[O-])ccc1Oc1cc(-n2c(=O)n3n(c2=S)CCCC3)c(F)cc1Cl
6. CCN1CC(=O)N(c2cc(Oc3ncccn3)c(Cl)cc2F)C1=O

[40, 10, 0, 0, 0, 50]

Record crop damage rating CORN per entry; entries follow.
1. O=C1C2CCCCN2C(=O)N1c1cc(Oc2ncccc2C(F)(F)F)c(Cl)cc1F (centres unmarked)
2. O=c1n(CCCF)nnn1-c1cc(Oc2ncccn2)c(Cl)cc1Cl
3. Cn1c(C(F)(F)F)nc(-c2cc(Oc3ncccc3C(F)(F)F)c(Cl)cc2F)c1Cl
4. Cn1c(C(F)(F)F)nc(-c2cc(Oc3ncccc3[N+](=O)[O-])c(Cl)cc2F)c1Cl
5. Cn1nc(-c2cc(Oc3ncccc3C#N)c(Cl)cc2F)c(Cl)c1C(F)(F)F
6. Cn1nc(-c2cc(Oc3ncccn3)c(Cl)cc2F)c(Cl)c1C(F)(F)F

0
40
0
0
40
70

----------
Give phytotoxicity rating SORHA for every item shown.
test system: Johnsongrass (Sorghum halepense, SORHA); assay: Post-emerge greenhouse herbicide test, phytotoxicity rating; type: in vivo; conditions: rate 500 g ai/ha, 14 days after application, scale 0-100
Give bare numbers.

Worked cases, answers included:
COc1cc(Oc2cc(-n3c(=O)n4n(c3=S)CCCC4)c(F)cc2Cl)nc(OC)n1 : 20
Nc1ccc(Oc2cc(-n3c(=O)n4n(c3=S)CCCC4)c(F)cc2Cl)nc1 : 50
N#Cc1cccnc1Oc1cc(-n2c(=O)n3n(c2=S)CCCC3)c(F)cc1Cl : 100
CS(=O)(=O)c1cccnc1Oc1cc(-n2c(=O)n3n(c2=S)CCCC3)c(F)cc1Cl : 70
O=c1n(-c2cc(Oc3nccc(Cl)n3)c(Cl)cc2F)c(=S)n2n1CCCC2 : 30

For each of the molecules below, state phytotoxicity rating SORHA.
1. O=c1n(-c2cc(Oc3cccc(Cl)n3)c(Cl)cc2F)c(=S)n2n1CCCC2
2. CC(=O)Nc1ccc(Oc2cc(-n3c(=O)n4n(c3=S)CCCC4)c(F)cc2Cl)c(C(F)(F)F)c1
3. O=c1n(-c2cc(Oc3nccc(C(F)(F)F)n3)c(Cl)cc2F)c(=S)n2n1CCCC2

0
10
95

----------
test system: soybean (Glycine max L., var. Pella 86, SOY); assay: Post-emerge greenhouse test, crop damage rating; format: in vivo; conditions: 63 g al/ha, 14 days after application
If the reported SOY crop damage rating (0-100) equals or exceeds 30, assign met. If not, assign not met.

COc1cc(OC)nc(Oc2cc(-n3nnn(CCCF)c3=O)c(F)cc2Cl)n1 [Compound 6-15] : not met
N#Cc1cccnc1Oc1cc(-n2nnn(CCCF)c2=O)c(F)cc1Cl [Compound 6-4] : not met
Cn1nc(-c2cc(Oc3ncccn3)c(Cl)cc2F)c(Cl)c1C(F)(F)F [Compound 1-7] : met
CN1CC(=O)N(c2cc(Oc3ncccn3)c(Cl)cc2F)C1=O [Compound 8-3] : not met
O=c1cc2n(c(=O)n1-c1cc(Oc3ncccn3)c(Cl)cc1F)CCC2 [Compound 5-12] : met
O=C1C2CCCCN2C(=O)N1c1cc(Oc2ncccc2C(F)(F)F)c(Cl)cc1F (centres unmarked) [Compound 8-4] : not met

Please tell me: is the molecule O=c1sc(=Nc2cc(Oc3ncccn3)c(Cl)cc2F)n2n1CCCC2 [Compound 7-2] at or over 30 in terms of SOY crop damage rating (0-100)?
met

Hi, just wondering whether N#Cc1cccnc1Oc1cc(-n2nnn(CCCF)c2=O)c(Cl)cc1Cl [Compound 6-5] shows SOY crop damage rating (0-100) of 30 or higher.
not met

Hi team, for O=c1n(-c2cc(Oc3ccccc3[N+](=O)[O-])c(Cl)cc2F)c(=S)n2n1CCCC2 [Compound 8-6] , is the recorded SOY crop damage rating (0-100) at or above 30?
met
